// composite z-score lookup, one value per entry
System: Plasmodium falciparum Sir2 (PF13_0152, Sir2A)
Assay: Plasmodium falciparum Sir2A binding compounds – biochemical, small-molecule microarray, 635 nm fluorescence, primary screen (AID 1098);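 note: score merges spot fluorescence intensity with its signal-to-noise ratio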
Settings: fluorescence 635 nm, higher = more signal
value_kind: composite z-score

# molecule, value_kind, recorded_value
rows = [
    ("[N-]=[N+]=NCc1ccccc1C[C@@]1(C(=O)NCC(O)CO)N=C(c2ccc(OCCCO)cc2)O[C@@H]1c1ccccc1 (some centres not stated)", "composite z-score", 0.048),
    ("O=c1cccc(-c2ccccc2Cl)o1", "composite z-score", -0.462),
    ("CN1CCC(CCCO)=CC1c1cccs1 (configuration not stated)", "composite z-score", 0.238),
    ("CCCCN1CC=CC23O[C@@H]4C=CCOC(=O)[C@@H]4[C@H]2C(=O)N(CCCCCCO)[C@@H]3C1=O (some centres not stated)", "composite z-score", 1.77),
    ("C=CC[C@@]1(C(=O)N2CCCCC2)N=C(c2ccc(OCCCO)cc2)O[C@@H]1c1ccccc1CN=[N+]=[N-]", "composite z-score", 1.23),
    ("[N-]=[N+]=Nc1ccccc1[C@H]1OC(c2ccc(OCCCO)cc2)=N[C@@]1(Cc1ccccc1)C(=O)N1CCOCC1", "composite z-score", 1.43),
    ("COC(=O)[C@@]1(Cc2ccc(OC)cc2)[C@H]2c3cc(C(=O)N(C)C)n(Cc4ccc(C(F)(F)F)nc4)c3C[C@H]2CN1C(=O)c1ccccc1", "composite z-score", 0.707),
    ("O=C1C2C=CC(C(O)c3ccc(-c4ccccc4)s3)N(Nc3ccccc3)C2C(=O)N1c1ccccc1 (configuration not stated)", "composite z-score", 1.5),
    ("C[N+](C)(C)CCCC[C@@H]1NC(=O)[C@@H]2C[C@H](C(=O)NCCCCCN)[C@H](c3ccc(O)cc3)N2C1=O", "composite z-score", 1.55),
    ("COc1ccc([Si](C)(C)[C@@H]2[C@@H](CCO)O[C@]3(C(=O)N(Cc4cccc(N5CCOC5=O)c4)c4ccccc43)[C@H]2C)cc1", "composite z-score", 0.75),
    ("COCC(=C=CC[C@H](O)c1ccccc1OCCO)CCO", "composite z-score", 1.52),
    ("CC[C@@H]1C=C(C(=O)O)[C@H](c2ccc(C)cc2)N1S(=O)(=O)c1ccc(C)cc1", "composite z-score", 0.66),
    ("O=C(CS)NCCCCCNC(=O)[C@@H]1C[C@@H]2C(=O)NCC(=O)N2[C@@H]1c1cccc(OCCO)c1", "composite z-score", 1.17),
    ("C=C(CCCC)/C(=C/C[C@@H](OC(C)=O)c1ccccc1OCCO)c1cc(C(=O)OC)ccc1OC", "composite z-score", 0.175),
    ("CCN(CC)c1ccc(N2CC=CC34O[C@@H]5C=CCOC(=O)[C@@H]5[C@H]3C(=O)N(CCCCCCO)[C@@H]4C2=O)cc1 (some centres not stated)", "composite z-score", 1.85),
    ("OCCCC1=CC(C2CC2)N(Cc2cccc(OC(F)(F)F)c2)CC1 (configuration not stated)", "composite z-score", 1.13),
    ("O=C1C2C=CC(C(O)C=Cc3ccc([N+](=O)[O-])cc3)N(Nc3ccccc3F)C2C(=O)N1c1ccccc1 (configuration not stated)", "composite z-score", 0.808),
]
